- Tested on: Nav1.5
- Assay: Patch-clamp (voltage clamp) recording of VGSC current in HEK cells stably expressing Nav1.5
- Applied conditions: read-out: IC50 from difference in Vh of steady-state inactivation curve (Hill equation)
Observation type: IC50 (µM)
# number only, unit µM dropped from output

// fetch IC50 given entry Brc1c(Br)c(Br)c2[nH]nnc2c1Br
12.9

====

- System: Nav1.5
- Assay: Patch-clamp (voltage clamp) recording of VGSC current in HEK cells stably expressing Nav1.5
- Applied conditions: read-out: IC50 (VGSC inhibition); prepulse −100 mV
Observation type: pIC50
# pIC50: negative log10 of molar concentration; output just the value

Report pIC50 from Nav1.5 testing of CCOC(=O)C(C)(C)Oc1ccc(Cl)cc1 [Clofibrate]
2.92

Data credit: patent US20260240820A1
